# procedureSummary: qHTS for Inhibitors of the Functional Ribonucleoprotein Complex (vRNP) of Lymphocytic Choriomeningitis Arenaviruses (LCMV): Viability assay - alamar blue signal for LCMV Primary Screen (AID 1347085); further: nearly all actives have a fitted effect of over 80% in size
# setupConditions: alamar blue viability counter-screen, LCMV vRNP screen cells; series mostly up to 57.5 µM
Results filed as inconclusive are left out. The source made the active and inactive calls. The call rests on the fitted dose curve; tested in HEK293 reporter line.
measuredEndpoint: outcome

| molecule | outcome |
| --- | --- |
| CN1CCC(N(Cc2cccs2)c2ccccc2)CC1 | inactive |
| C#C[C@]1(OC(C)=O)CC[C@H]2[C@@H]3CCC4=C/C(=N/O)CC[C@@H]4[C@H]3CC[C@@]21CC | inactive |
| NC(=O)c1ncn([C@@H]2O[C@H](CO)[C@@H](O)[C@H]2O)c1N | inactive |
| CCOC(=O)C(=O)CCc1ccccc1 | inactive |

Could you now consider this next molecule?
Record CCOC(=O)OC(C)OC(=O)[C@@H]1N2C(=O)[C@@H](NC(=O)[C@H](N)c3ccccc3)[C@H]2SC1(C)C (stereo not given in full) . Reported outcome: inactive
